Data origin: patent US7160903B2

System Tested: stromelysin (MMP-3) (Homo sapiens, UniProt P08254)
Construct: enzymatic activity of the catalytic domains of human stromelysin and of neutrophil collagenase
Sequence (P08254 100-272 limits assumed): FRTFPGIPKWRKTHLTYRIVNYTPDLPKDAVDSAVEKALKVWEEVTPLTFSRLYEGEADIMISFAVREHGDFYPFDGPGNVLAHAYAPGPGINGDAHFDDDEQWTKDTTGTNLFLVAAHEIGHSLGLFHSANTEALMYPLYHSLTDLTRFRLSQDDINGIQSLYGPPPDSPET
Run Description: Enzymatic activity of the catalytic domain of human stromelysin (fluorogenic substrate)
Condition Summary: pH=6.5, 15 min preincubation, fluorescence 328 nm (ex)/393 nm (em)
Quantity: pIC50
Units for pIC50: none; it is -log10 of a concentration expressed in mol/L.

Below are worked cases with known answers.
Compound	pIC50
NC(=O)CC[C@@H](NS(=O)(=O)c1ccc(-c2ccc(Cl)cc2)cc1)C(=O)O	7.30
O=C(O)[C@@H](CCc1ccccc1)NS(=O)(=O)c1ccc(-c2ccc(Cl)cc2)cc1	6.70
O=C(O)CC[C@H](NS(=O)(=O)c1ccc(-c2ccc(N3CCCC3)cc2)cc1)C(=O)O	8.40

Turning now to a further record.
Consider O=C(CC[C@H](NS(=O)(=O)c1ccc(-c2ccc(N3CCCC3)cc2)cc1)C(=O)O)Nc1ccc(F)cc1 . Its measured pIC50 is 8.00
